target: AmpC (Pseudomonas aeruginosa); construct: AmpC, TEM-1, KPC-2 or OXA-2 domain excluding signal peptide was amplified with PCR; experiment: biochemical
Consider the following molecules; for each one, report its IC50.

Q: Give the measured IC50 of "O=C(NO[C@@H]1CCNC1)[C@@H]1CC[C@@H]2CN1C(=O)N2OS(=O)(=O)O" .
Ans: 100 to 1000 nM

Q: Give the measured IC50 of "NNC(=O)[C@@H]1CC[C@@H]2CN1C(=O)N2OS(=O)(=O)O" .
Ans: 100 to 1000 nM

Q: Give the measured IC50 of "O=C(NNC(=O)[C@@H]1CC[C@@H]2CN1C(=O)N2OS(=O)(=O)O)[C@H]1CCCN1" .
Ans: < 100 nM

Q: Give the measured IC50 of "O=C(NNC(=O)[C@@H]1CC[C@@H]2CN1C(=O)N2OS(=O)(=O)O)[C@@H]1C[C@H](CC2CC2)CCN1" .
Ans: 100 to 1000 nM

---

biological target: AmpC (Pseudomonas aeruginosa, UniProt P24735); construct: AmpC, TEM-1, KPC-2 or OXA-2 domain excluding signal peptide was amplified with PCR; assay: biochemical
Sequence (P24735 27-397): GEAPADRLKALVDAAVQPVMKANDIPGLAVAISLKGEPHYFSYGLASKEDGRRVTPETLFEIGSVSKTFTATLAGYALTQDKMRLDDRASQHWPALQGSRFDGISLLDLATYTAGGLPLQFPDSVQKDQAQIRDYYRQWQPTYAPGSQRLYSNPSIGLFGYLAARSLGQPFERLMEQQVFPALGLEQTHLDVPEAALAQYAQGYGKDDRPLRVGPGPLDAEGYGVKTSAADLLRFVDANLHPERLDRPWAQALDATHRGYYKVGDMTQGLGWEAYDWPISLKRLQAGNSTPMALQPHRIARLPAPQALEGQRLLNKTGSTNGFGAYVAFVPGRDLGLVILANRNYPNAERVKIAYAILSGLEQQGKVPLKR
MEASURED_PARAMETER: IC50

Q: Give the measured IC50 of "CN(C)CCONC(=O)[C@@H]1CC[C@@H]2CN1C(=O)N2OS(=O)(=O)O" .
Ans: 0.1 to 1 µM

Q: Give the measured IC50 of "O=C(NNC(=O)[C@@H]1CC[C@@H]2CN1C(=O)N2OS(=O)(=O)O)c1ccncc1" .
Ans: < 0.1 µM

Q: Give the measured IC50 of O=C(NNC(=O)[C@@H]1CC[C@@H]2CN1C(=O)N2OS(=O)(=O)O)Nc1ccccc1 (racemic) .
Ans: 0.1 to 1 µM

Q: Give the measured IC50 of O=C(NN1CCOCC1)[C@@H]1CC[C@@H]2CN1C(=O)N2OS(=O)(=O)O (racemic) .
Ans: 0.1 to 1 µM

Q: Give the measured IC50 of "CCCNCCONC(=O)[C@@H]1CC[C@@H]2CN1C(=O)N2OS(=O)(=O)O" .
Ans: 0.1 to 1 µM

Q: Give the measured IC50 of NCC(=O)NNC(=O)[C@@H]1CC[C@@H]2CN1C(=O)N2OS(=O)(=O)O (racemic) .
Ans: 1 to 3 µM

Q: Give the measured IC50 of "O=C(NOCC(=O)N1CCOCC1)[C@@H]1CC[C@@H]2CN1C(=O)N2OS(=O)(=O)O" .
Ans: < 0.1 µM

Q: Give the measured IC50 of O=C(NN1CCCC1=O)[C@@H]1CC[C@@H]2CN1C(=O)N2OS(=O)(=O)O (racemic) .
Ans: 0.1 to 1 µM

Q: Give the measured IC50 of "O=C(NOC[C@@H]1CCCNC1)[C@@H]1CC[C@@H]2CN1C(=O)N2OS(=O)(=O)O" .
Ans: < 0.1 µM

Q: Give the measured IC50 of "O=C(NNC(=O)[C@@H]1CC[C@@H]2CN1C(=O)N2OS(=O)(=O)O)c1cccnc1" .
Ans: < 0.1 µM

Q: Give the measured IC50 of "CONC(=O)[C@@H]1CC[C@@H]2CN1C(=O)N2OS(=O)(=O)O" .
Ans: 0.1 to 1 µM

Q: Give the measured IC50 of "O=C(NNC(=O)[C@@H]1CC[C@@H]2CN1C(=O)N2OS(=O)(=O)O)[C@H]1CCCCN1" .
Ans: 1 to 3 µM

Q: Give the measured IC50 of "O=C(NO[C@H]1CCNC1)[C@@H]1CC[C@@H]2CN1C(=O)N2OS(=O)(=O)O" .
Ans: < 0.1 µM

Q: Give the measured IC50 of "O=C(NOC[C@@H]1CCCCN1)[C@@H]1CC[C@@H]2CN1C(=O)N2OS(=O)(=O)O" .
Ans: 0.1 to 1 µM

Q: Give the measured IC50 of "O=C(NNC(=O)[C@@H]1CC[C@@H]2CN1C(=O)N2OS(=O)(=O)O)C1CCNCC1" .
Ans: 0.1 to 1 µM

Q: Give the measured IC50 of "O=C1CC[C@H](C(=O)NNC(=O)[C@@H]2CC[C@@H]3CN2C(=O)N3OS(=O)(=O)O)N1" .
Ans: 0.1 to 1 µM

---

target: KPC-2 (Klebsiella pneumoniae, UniProt Q9F663); construct: AmpC, TEM-1, KPC-2 or OXA-2 domain excluding signal peptide was amplified with PCR; assay: β-Lactamase inhibitory activity (nitrocefin hydrolysis), KPC-2; settings: KPC-2 0.5 nM, 100 μM nitrocefin, pre-incubation 30° C. 10 minutes
Sequence (Q9F663 25-293, looked up): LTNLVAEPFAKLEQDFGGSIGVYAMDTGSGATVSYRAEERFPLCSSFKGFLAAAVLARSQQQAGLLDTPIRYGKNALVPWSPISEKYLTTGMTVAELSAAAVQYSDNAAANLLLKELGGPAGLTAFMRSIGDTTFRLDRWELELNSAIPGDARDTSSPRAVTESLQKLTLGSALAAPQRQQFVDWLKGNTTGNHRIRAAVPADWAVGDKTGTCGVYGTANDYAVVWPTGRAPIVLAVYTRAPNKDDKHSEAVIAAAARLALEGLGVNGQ
Consider the following compounds; for each one, report its IC50.

Q: Give the measured IC50 of O=C(NOCC1CNC1)[C@@H]1CC[C@@H]2CN1C(=O)N2OS(=O)(=O)O [Example 82] .
Ans: 0.1 to 1 µM

Q: Give the measured IC50 of O=C(NOCCn1ccnc1S(=O)(=O)O)[C@@H]1CC[C@@H]2CN1C(=O)N2OS(=O)(=O)O [Example 88] .
Ans: 0.1 to 1 µM

Q: Give the measured IC50 of C[C@@H](CN)ONC(=O)[C@@H]1CC[C@@H]2CN1C(=O)N2OS(=O)(=O)O [Example 68] .
Ans: 0.1 to 1 µM

Q: Give the measured IC50 of O=C(NOCC(=O)N1CCOCC1)[C@@H]1CC[C@@H]2CN1C(=O)N2OS(=O)(=O)O [Example 91] .
Ans: < 0.1 µM

Q: Give the measured IC50 of NCCCONC(=O)[C@@H]1CC[C@@H]2CN1C(=O)N2OS(=O)(=O)O [Example 69] .
Ans: 1 to 3 µM

Q: Give the measured IC50 of CS(=O)(=O)NNC(=O)[C@@H]1CC[C@@H]2CN1C(=O)N2OS(=O)(=O)O [Example 54] .
Ans: 0.1 to 1 µM

Q: Give the measured IC50 of O=C(NOCC(=O)N1CCCNCC1)[C@@H]1CC[C@@H]2CN1C(=O)N2OS(=O)(=O)O [Example 92] .
Ans: 0.1 to 1 µM

Q: Give the measured IC50 of O=C(NOCCn1cccc1)[C@@H]1CC[C@@H]2CN1C(=O)N2OS(=O)(=O)O [Example 87] .
Ans: < 0.1 µM

Q: Give the measured IC50 of CN(C)NC(=O)[C@@H]1CC[C@@H]2CN1C(=O)N2OS(=O)(=O)O (racemic) [Example 20] .
Ans: 1 to 3 µM

Q: Give the measured IC50 of COC(=O)NNC(=O)[C@@H]1CC[C@@H]2CN1C(=O)N2OS(=O)(=O)O [Example 51] .
Ans: 0.1 to 1 µM

Q: Give the measured IC50 of Nc1ccc(C(=O)NNC(=O)[C@@H]2CC[C@@H]3CN2C(=O)N3OS(=O)(=O)O)cc1 [Example 31] .
Ans: 0.1 to 1 µM

Q: Give the measured IC50 of COCC(=O)NNC(=O)[C@@H]1CC[C@@H]2CN1C(=O)N2OS(=O)(=O)O [Example 29] .
Ans: 0.1 to 1 µM

Q: Give the measured IC50 of O=C(NO[C@H]1CCNC1)[C@@H]1CC[C@@H]2CN1C(=O)N2OS(=O)(=O)O [Example 81] .
Ans: 0.1 to 1 µM

Q: Give the measured IC50 of CNCCONC(=O)[C@@H]1CC[C@@H]2CN1C(=O)N2OS(=O)(=O)O [Example 61] .
Ans: 1 to 3 µM

Q: Give the measured IC50 of O=C(NOCCN1CCCNCC1)[C@@H]1CC[C@@H]2CN1C(=O)N2OS(=O)(=O)O [Example 74] .
Ans: 0.1 to 1 µM

Q: Give the measured IC50 of C[C@H](N)CONC(=O)[C@@H]1CC[C@@H]2CN1C(=O)N2OS(=O)(=O)O [Example 66] .
Ans: 1 to 3 µM

Q: Give the measured IC50 of O=C(NNC(=O)[C@@H]1CC[C@@H]2CN1C(=O)N2OS(=O)(=O)O)c1ccncc1 [Example 46] .
Ans: 0.1 to 1 µM

---

molecular target: TEM-1 (Escherichia coli, UniProt P62593); construct: AmpC, TEM-1, KPC-2 or OXA-2 domain excluding signal peptide was amplified with PCR; experiment: β-Lactamase inhibitory activity (nitrocefin hydrolysis), TEM-1; conditions: TEM-1 0.1 nM, 100 μM nitrocefin, pre-incubation 30° C. 10 minutes
Sequence (P62593 24-286 limits assumed): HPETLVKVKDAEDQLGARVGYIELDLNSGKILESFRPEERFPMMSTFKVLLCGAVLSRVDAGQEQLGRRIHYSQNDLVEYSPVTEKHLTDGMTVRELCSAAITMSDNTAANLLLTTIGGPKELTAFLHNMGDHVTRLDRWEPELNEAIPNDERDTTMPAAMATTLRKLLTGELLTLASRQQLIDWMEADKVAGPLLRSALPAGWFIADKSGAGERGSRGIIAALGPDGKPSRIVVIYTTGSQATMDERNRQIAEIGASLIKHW
pIC50: −log10 of the molar value.
Consider the following molecules; for each one, report its pIC50.

Q: Give the measured pIC50 of CNCCONC(=O)[C@@H]1CC[C@@H]2CN1C(=O)N2OS(=O)(=O)O [Example 61] .
Ans: > 7.00

Q: Give the measured pIC50 of O=C(NN1CCOCC1)[C@@H]1CC[C@@H]2CN1C(=O)N2OS(=O)(=O)O (racemic) [Example 55] .
Ans: 6.00 to 7.00

Q: Give the measured pIC50 of O=C(NNC(=O)[C@@H]1CC[C@@H]2CN1C(=O)N2OS(=O)(=O)O)[C@H]1CCCN1 [Example 39] .
Ans: > 7.00

Q: Give the measured pIC50 of O=C(NOCCN1CCOCC1)[C@@H]1CC[C@@H]2CN1C(=O)N2OS(=O)(=O)O [Example 72] .
Ans: > 7.00

Q: Give the measured pIC50 of CC(C)(C)C(=O)NNC(=O)[C@@H]1CC[C@@H]2CN1C(=O)N2OS(=O)(=O)O [Example 24] .
Ans: 6.00 to 7.00

Q: Give the measured pIC50 of COCC(=O)NNC(=O)[C@@H]1CC[C@@H]2CN1C(=O)N2OS(=O)(=O)O [Example 29] .
Ans: > 7.00

Q: Give the measured pIC50 of O=C([C@@H]1CC[C@@H]2CN1C(=O)N2OS(=O)(=O)O)N1CCCCO1 [Example 71] .
Ans: > 7.00

Q: Give the measured pIC50 of O=C(NNC(=O)[C@@H]1CC[C@@H]2CN1C(=O)N2OS(=O)(=O)O)c1ccco1 [Example 43] .
Ans: > 7.00
